- Tested on: Burkholderia mallei
- method_description: microbe, parasite or virus in culture
- Assay type: cell-based
measured_quantity: MIC50 (µg/mL)

- C=C[C@H](N)CCCc1cc(Cl)c(F)c(-c2cc3cn(-c4ccc([C@@H]5CCC[C@@H](CCNC(C)=N)N5)c(SC)c4)c(=O)nc3[nH]2)c1: 0.25
- CC(=N)NCC[C@@H]1CCC[C@@H](c2ccc(-n3cc4cc(-c5cc(CCC[C@H](C)N)cc(Cl)c5F)[nH]c4nc3=O)cc2)N1CCCO [RX-D2]: 0.12
- C[C@H](N)CCCc1cc(Cl)c(F)c(-c2cc3cn(-c4ccc([C@@H]5CCC[C@@H](CCNC(=N)CN)N5)cc4)c(=O)nc3[nH]2)c1: 0.12
- CC(=N)NCC[C@@H]1CCC[C@@H](c2ccc(-n3cc4cc(-c5cc(CCC[C@H](C)N)cc(Cl)c5F)[nH]c4nc3=O)cc2)N1CCCF: 0.12
- C[C@H](N)CCCc1cc(Cl)c(F)c(-c2cc3cn(-c4ccc([C@H]5CC[C@H](CCNC(=N)N)N5)cc4)c(=O)nc3[nH]2)c1: 0.06
- C[C@H](N)CCCc1cc(Cl)c(F)c(-c2cc3cn(-c4ccc([C@@H]5CCC[C@@H](CCSC(=N)N)N5)cc4)c(=O)nc3[nH]2)c1: 0.12
- CC[C@H]1OC(=O)[C@H](C)[C@@H](O[C@H]2C[C@@](C)(OC)[C@@H](O)[C@H](C)O2)[C@H](C)[C@@H](O[C@@H]2O[C@H](C)C[C@H](N(C)C)[C@H]2O)[C@](C)(O)C[C@@H](C)CN(C)[C@H](C)[C@@H](O)[C@]1(C)O [Azithromycin, azithromycin, reference compound]: 0.5
- CCCN1[C@H](CCNC(C)=N)CCC[C@H]1c1ccc(-n2cc3cc(-c4cc(CCC[C@H](C)N)cc(Cl)c4F)[nH]c3nc2=O)cc1: 0.06
- C=CCN1[C@H](CCNC(C)=N)CCC[C@H]1c1ccc(-n2cc3cc(-c4cc(CCC[C@H](C)N)cc(Cl)c4F)[nH]c3nc2=O)cc1: 0.12
- CSc1cc(-n2cc3cc(-c4cc(CCC[C@@H](N)C5CC5)cc(Cl)c4F)[nH]c3nc2=O)ccc1[C@@H]1CCC[C@@H](CCNC(C)=N)N1 [RX-D1]: 0.12

---

- Test system: Burkholderia pseudomallei
- method_description: microbe, parasite or virus in culture
- Format: cell-based
- condition_notes: Burkholderia pseudomallei, read-out: MIC range
measured_quantity: MIC

- CC(=N)NCC[C@@H]1CSC[C@@H](c2ccc(-n3cc4cc(-c5cc(CCC[C@H](C)N)cc(Cl)c5F)[nH]c4nc3=O)cc2)N1 [RX-D9]: 0.5 to 4 µg/mL
- C[C@H](N)CCCc1cc(Cl)c(F)c(-c2cc3cn(-c4ccc([C@H]5CC[C@H](CCNC(=N)N)N5)cc4)c(=O)nc3[nH]2)c1 [RX-D13]: 0.25 to 8 µg/mL
- CSc1cc(-n2cc3cc(-c4cc(CCC[C@@H](N)C5CC5)cc(Cl)c4F)[nH]c3nc2=O)ccc1[C@@H]1CCC[C@@H](CCNC(C)=N)N1 [RX-D1]: 0.5 to 4 µg/mL
- CC(=N)NCC[C@@H]1CCC[C@@H](c2ccc(-n3cc4cc(-c5cc(CCC[C@H](C)N)cc(Cl)c5F)[nH]c4nc3=O)cc2)N1CCCF [RX-D3]: 0.5 to 8 µg/mL
